Kindly supply the reported tube area decrease values for the records listed here.
experiment: inhibition of endothelial tube formation, primary screen, imaging, VEGF stimulated, CD31 staining, tube area, NPC library (AID 1117340); conditions: VEGF-stimulated ADSC/ECFC co-culture, at 10 µM, stronger effect = higher value
Express the result in % but write the number alone.

Task: Reported tube area decrease, compound O=C(O)c1cc(=O)[nH]c(=O)[nH]1 : ____
Output: -4.9

Task: Reported tube area decrease, compound Nc1cccc2c1CN(C1CCC(=O)NC1=O)C2=O (centres undefined) : ____
Output: -3.8

Task: Reported tube area decrease, compound COc1ccc(C=CC(=O)Nc2ccccc2C(=O)O)cc1OC : ____
Output: -1.3

Task: Reported tube area decrease, compound N[C@H]1C(O)O[C@H](CO)[C@@H](O)[C@@H]1O (some centres undefined) : ____
Output: -12.1

Task: Reported tube area decrease, compound O=C(Nc1ccc(S(=O)(=O)N2CCOCC2)cc1)c1cc(Cl)ccc1NS(=O)(=O)c1ccc(Cl)s1 : ____
Output: 100

Task: Reported tube area decrease, compound CCCCC(CC)COc1ccc(-c2nc(-c3ccc(OC)cc3)nc(-c3ccc(OCC(CC)CCCC)cc3O)n2)c(O)c1 (centres undefined) : ____
Output: 2.9

Task: Reported tube area decrease, compound O=C(CCCCCCC(=O)Nc1ccccc1)NO : ____
Output: 103

Task: Reported tube area decrease, compound Nc1c(CC(=O)O)cccc1C(=O)c1ccccc1 : ____
Output: -6.1

Task: Reported tube area decrease, compound C[C@]12CCC(=O)C=C1CC[C@H]1[C@@H]3CC[C@](O)(C(=O)CO)[C@@]3(C)C[C@H](O)[C@@]12F : ____
Output: 10.3

Task: Reported tube area decrease, compound C/C(=C(\CCOP(=O)(O)O)SC(=O)c1ccccc1)N(C=O)Cc1cnc(C)nc1N : ____
Output: -4.8

Task: Reported tube area decrease, compound NC(=O)c1cn(Cc2c(F)cccc2F)nn1 : ____
Output: -8.7

Task: Reported tube area decrease, compound Cc1cc(=O)oc2cc(O)ccc12 : ____
Output: -7.2

Task: Reported tube area decrease, compound O=C1c2ccccc2C(=O)C1c1ccc(Br)cc1 : ____
Output: 31.1

Task: Reported tube area decrease, compound COc1cc(/C=C/C(N)=O)cc(OC)c1OC : ____
Output: 11.9

Task: Reported tube area decrease, compound CCCC(=O)O[C@]1(C(=O)CO)CC[C@H]2[C@@H]3CCC4=CC(=O)CC[C@]4(C)[C@H]3[C@@H](O)C[C@@]21C : ____
Output: 18.3

Task: Reported tube area decrease, compound CN1C(=O)CC(c2ccccc2)C1=O (centres undefined) : ____
Output: -2.7

Task: Reported tube area decrease, compound CC[C@H](C)[C@H](N)C(=O)O : ____
Output: 27

Task: Reported tube area decrease, compound CN(Cc1ccc(C(C)(C)C)cc1)Cc1cccc2ccccc12 : ____
Output: 7.1

Task: Reported tube area decrease, compound CCN[C@H]1CN(CCCOC)S(=O)(=O)c2sc(S(N)(=O)=O)cc21 : ____
Output: -15

Task: Reported tube area decrease, compound Cn1cc(S(C)=O)c(=O)c2ccc(F)cc21 (centres undefined) : ____
Output: 1.1

Task: Reported tube area decrease, compound O=C1OC(OC(=O)c2cccnc2Nc2cccc(C(F)(F)F)c2)c2ccccc21 (centres undefined) : ____
Output: 72.7

Task: Reported tube area decrease, compound CC(O)CN(CCN(CC(C)O)CC(C)O)CC(C)O (centres undefined) : ____
Output: 5.2

Task: Reported tube area decrease, compound Clc1ccc(Cn2c(CN3CCCC3)nc3ccccc32)cc1 : ____
Output: 14.2

Task: Reported tube area decrease, compound O=C(O)Cc1cccc2ccccc12 : ____
Output: 0

###

molecular target: Calcium-activated potassium channel subunit alpha-1 (Homo sapiens) + Leucine-rich repeat-containing protein 26 (Homo sapiens) (UniProt Q12791+Q2I0M4); assay: modulators of BK channel variants, profiling panel, selectivity assay, cell-based, U2OS BacMam, thallium flux, beta subunits (AID 1259406); details: F380Y/Slo1WT/gamma1, at 30 µM;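 note: initial slope of Thallos dye fluorescence rise after thallium is added; log ratio against the mean of 0.3% DMSO vehicle wells on the same plate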
Sequence (Q2I0M4 whole entry, looked up, one chain of several): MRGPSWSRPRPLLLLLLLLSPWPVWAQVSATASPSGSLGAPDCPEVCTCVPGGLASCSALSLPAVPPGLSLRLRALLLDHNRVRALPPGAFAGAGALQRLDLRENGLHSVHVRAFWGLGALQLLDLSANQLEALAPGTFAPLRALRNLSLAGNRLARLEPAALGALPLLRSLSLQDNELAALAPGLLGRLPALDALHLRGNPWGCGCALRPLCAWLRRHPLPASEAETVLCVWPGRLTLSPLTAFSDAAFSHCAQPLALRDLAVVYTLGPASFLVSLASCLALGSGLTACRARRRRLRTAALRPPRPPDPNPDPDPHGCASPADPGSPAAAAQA
Kindly supply the reported log fold change Tl+ flux values for the records listed here.
Give only the figure.

Task: Reported log fold change Tl+ flux, molecule CCN1CCN(C(=O)N[C@@H](C(=O)N[C@@H]2C(=O)N3[C@@H]2SC(C)(C)[C@@H]3C(=O)O)c2ccccc2)C(=O)C1=O : ____
Output: -0.00699

Task: Reported log fold change Tl+ flux, molecule CNCCCN1c2ccccc2CCc2ccccc21 : ____
Output: 0.148

Task: Reported log fold change Tl+ flux, molecule CC[C@H]1OC(=O)[C@H](C)[C@@H](O[C@H]2C[C@@](C)(OC)[C@@H](O)[C@H](C)O2)[C@H](C)[C@@H](O[C@@H]2O[C@H](C)C[C@H](N(C)C)[C@H]2O)[C@](C)(OC)C[C@@H](C)C(=O)[C@H](C)[C@@H](O)[C@]1(C)O : ____
Output: -0.0843

Task: Reported log fold change Tl+ flux, molecule OC[C@H]1O[C@@H](Oc2cc(O)cc(/C=C/c3ccc(O)cc3)c2)[C@H](O)[C@@H](O)[C@@H]1O : ____
Output: -0.0684

Task: Reported log fold change Tl+ flux, molecule Cc1cc(NS(=O)(=O)c2ccc(N)cc2)no1 : ____
Output: -0.00437

Task: Reported log fold change Tl+ flux, molecule CCCC1O[C@@H]2C[C@H]3[C@@H]4CCC5=CC(=O)C=C[C@]5(C)[C@H]4[C@@H](O)C[C@]3(C)[C@]2(C(=O)CO)O1 (some centres not stated) : ____
Output: 0.0553

Task: Reported log fold change Tl+ flux, molecule CC(=O)OCC(=O)[C@@]1(O)CC[C@H]2[C@@H]3C[C@H](C)C4=CC(=O)C=C[C@]4(C)[C@H]3[C@@H](O)C[C@@]21C : ____
Output: 0.0089

###

assay: differential killing of epithelial or mesenchymal cells, primary screen, imaging, PC-3E GFP, TEM4-18 mCherry, co-culture (AID 1345086); conditions: imaging cell counts, measured here: epithelial PC-3E GFP cell survival, at 1 µM;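 note: cells exposed to compound for 72 h before imaging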
Kindly supply the reported normalised cell number values for the records listed here.

Task: Reported normalised cell number, compound CN(C)CCN(Cc1cccs1)c1ccccn1 : ____
Output: 1.1

Task: Reported normalised cell number, compound CC(C)=CCCC1(C)C=Cc2c(O)c3c(c(CC=C(C)C)c2O1)OC12C(=CCCC1C(C)(C)O[C@@]2(C/C=C(\C)C(=O)O)C(=O)O)C3=O (some centres not stated) : ____
Output: 1.16

Task: Reported normalised cell number, compound CN1CCN(c2c(F)cc3c(=O)c(C(=O)O)cn(CCF)c3c2F)CC1 : ____
Output: 1.16

Task: Reported normalised cell number, compound CC(=O)O[C@@H]1CC2C(C)(CC[C@H](O)C2(C)C)C2CC[C@]3(C)C(=CC(=O)O[C@H]3c3ccoc3)C21C (some centres not stated) : ____
Output: 1.07

Task: Reported normalised cell number, compound COC(=O)[C@H](c1ccccc1Cl)N1CCc2sccc2C1 : ____
Output: 1.15

Task: Reported normalised cell number, compound O=C1C[C@@H](c2ccc(O)cc2)Oc2cc(O)cc(O)c21 : ____
Output: 0.96

Task: Reported normalised cell number, compound CCCOc1cc(N)ccc1C(=O)OCCN(CC)CC : ____
Output: 1.21

Task: Reported normalised cell number, compound Cc1[nH]ccc2c1[nH]c1cc(=O)ccc12 : ____
Output: 1

Task: Reported normalised cell number, compound C=C1C(=O)O[C@@H]2C[C@@]3(C)CCC[C@H](C)C3=C[C@H]12 : ____
Output: 0.81

Task: Reported normalised cell number, compound CN[C@H](CC(=O)O)C(=O)O : ____
Output: 1.12

Task: Reported normalised cell number, compound CC(C)CCCC(C)[C@H]1CCC2C3CC=C4CC(=O)CC[C@]4(C)C3CC[C@@]21C (some centres not stated) : ____
Output: 1.01

Task: Reported normalised cell number, compound CC(C)(Oc1ccc(C2CC2(Cl)Cl)cc1)C(=O)O (configuration not stated) : ____
Output: 1.15

Task: Reported normalised cell number, compound N=C(N=C(N)N)N1CCOCC1 : ____
Output: 0.9

Task: Reported normalised cell number, compound CC(=O)NCCCS(=O)(=O)O : ____
Output: 1

Task: Reported normalised cell number, compound CCn1nc(C(=O)O)c(=O)c2cc3c(cc21)OCO3 : ____
Output: 1.11

Task: Reported normalised cell number, compound Cc1cccc(C)c1NC(=O)CN1CCN(CCCC(c2ccc(F)cc2)c2ccc(F)cc2)CC1 : ____
Output: 1.1

Task: Reported normalised cell number, compound CC(=O)O[C@H]1C[C@@H](OC(C)=O)C(C)(C)C2CC(=O)[C@]3(C)C(CC[C@@]4(C)[C@H](C(=O)O)OC(=O)C5OC543)[C@]21C (some centres not stated) : ____
Output: 0.99

Task: Reported normalised cell number, compound CC(=O)O[C@@H]1CC[C@@]2(C)C(C[C@@H](OC(C)=O)[C@@]3(C)C4=CC(=O)O[C@@H](c5ccoc5)[C@]4(C)CCC23)C1(C)C (some centres not stated) : ____
Output: 1.08

Task: Reported normalised cell number, compound COc1ccc(/C=C/C(=O)Nc2ccccc2C(=O)O)cc1OC : ____
Output: 1.21

Task: Reported normalised cell number, compound COc1ccc(C(=O)CC(=O)O)c2c1C=CC(C)(C)O2 : ____
Output: 0.98

Task: Reported normalised cell number, compound CCCCCCCCCCCCCCCC[N+](C)(C)CCN(Cc1ccc(OC)cc1)c1ncccn1 : ____
Output: 1.06

Task: Reported normalised cell number, compound COc1cc(/C=C/C(=O)O)ccc1O : ____
Output: 1
